Provenance of the data: paper PMC9730446

Assay: in vivo
Details: NSG, mouse, plasma, ip, 10 mg/kg
Measured parameter: AUC

What measured AUC goes with Cc1nc(Nc2ncc(C(=O)Nc3c(C)cccc3Cl)s2)cc(N2CCN(CCO)CC2)n1 [dasatinib] ?
1400 ng·h/mL

====

Test: Cytotoxicity in peripheral blood mononuclear cells
Conditions: human, peripheral blood mononuclear cells (PBMCs)
Measured parameter: CC50 at 72 h (nM)
Hi! Could you send only the number? It should be in nM, unit omitted.

Look up CC50 at 72 h: Cc1nc(Nc2ncc(C(=O)Nc3c(C)cccc3Cl)s2)cc(N2CCN(CCO)CC2)n1 [dasatinib]
2.81

====

Assay: Cytotoxicity in CD34+ cells from healthy donors
Settings: human, CD34+ cells from cord blood of healthy donors
Measured parameter: CC50 at 72 h (nM)
Give the number; nM is assumed, so skip it.

// CC50 at 72 h lookup, key: Cc1nc(Nc2ncc(C(=O)Nc3c(C)cccc3Cl)s2)cc(N2CCN(CCO)CC2)n1
92.9
